# EXPERIMENT_NOTES: n-octanol-phosphate buffer partition coefficient, log D in CH3CN-MeOH-phosphate buffer at pH 5.2 by HPLC-UV analysis
# Assay type: physicochemical
logD below 0.3 gives Condition not met; logD at or above it gives Condition met.

## Input Hi, just wondering whether CCN(CC)CCCC(C)Nc1c2ccc(Cl)cc2nc2c3ccccc3n(CCN3CCCC3)c12 (centres undefined) shows logD of 0.3 or higher.
## Output Condition not met

====

# EXPERIMENT_NOTES: n-octanol-phosphate buffer partition coefficient, log D in CH3CN-MeOH-phosphate buffer at pH 7.4 by HPLC-UV analysis
# Format: physicochemical
Below: a set of entries, each annotated with reported logD.
Respond using a number only.

Illustrative cases are given below, each with its answer.
CCN(CC)CCNc1c2ccc(Cl)cc2nc2c3ccccc3n(CCN3CCCC3)c12: 3.2
CCN(CC)CCCNc1c2ccc(Cl)cc2nc2c3cc(Cl)ccc3n(CCN3CCCC3)c12: 3.23
Clc1ccc2c(NCCN3CCCC3)c3c(nc2c1)c1cc(Cl)ccc1n3CCN1CCCC1: 3
Clc1ccc2c(NCCCN3CCCCC3)c3c(nc2c1)c1cc(Cl)ccc1n3CCN1CCCC1: 3.1
CCN(CC)CCCC(C)Nc1c2ccc(Cl)cc2nc2c3ccccc3n(CCN3CCCC3)c12 (stereo not drawn): 0.6
Clc1ccc2c(NCCCN3CCCCC3)c3c(nc2c1)c1ccccc1n3CCN1CCCC1: 2.8

## Input Looking for the measured logD of CCN(CC)CCCNc1c2ccc(Cl)cc2nc2c3ccccc3n(CCN3CCCC3)c12 , can you help?
## Output 1.48

## Input Would you kindly repeat that for Clc1ccc2c(NCCN3CCCC3)c3c(nc2c1)c1ccccc1n3CCN1CCCC1 ?
## Output 2.7
